observationType: Ki

// fetch Ki for Cc1cccc(C2CC(c3ccc(Cl)cc3)Nc3nc(N)nn32)c1 (configuration not stated) ; system: N-formyl peptide receptor 2 (Homo sapiens)
> 40.3 µM

// fetch Ki for Cc1[nH]n2c(=O)c3c(nc2c1-c1ccccc1)CCC3 ; system: N-formyl peptide receptor 2 (Homo sapiens)
> 40.3 µM

// fetch Ki for CCc1c(C)nc2c(C#N)c(C)[nH]n2c1=O ; system: N-formyl peptide receptor 2 (Homo sapiens)
> 40.3 µM

// fetch Ki for COc1ccc(-c2cn3cccnc3n2)cc1NC(=O)CC(C)C ; system: N-formyl peptide receptor 2 (Homo sapiens)
27.2 µM

// fetch Ki for CC1=C(C(=O)OC(C)C)[C@]2(C(=O)N(CC(N)=O)c3ccccc32)C(C#N)=C(N)O1 ; system: N-formyl peptide receptor 2 (Homo sapiens)
> 40.3 µM

// fetch Ki for CC1CCN(c2nc(-c3ccccc3)c(C#N)c(=O)[nH]2)CC1 ; system: N-formyl peptide receptor 2 (Homo sapiens)
> 40.3 µM

// fetch Ki for CCCCC1C(=O)N(c2ccccc2)N(c2ccccc2)C1=O ; system: N-formyl peptide receptor 2 (Homo sapiens)
> 40.3 µM

// fetch Ki for Clc1ccc(C2CC(c3cccs3)n3ncnc3N2)cc1Cl (configuration not stated) ; system: N-formyl peptide receptor 2 (Homo sapiens)
> 40.3 µM

// fetch Ki for CCCCn1c(NC(=O)CC)c(C#N)c2nc3ccccc3nc21 ; system: N-formyl peptide receptor 2 (Homo sapiens)
> 40.3 µM

// fetch Ki for COc1ccc(NC(=O)C2C(=O)NC3(C)CC2c2ccccc2O3)cc1 (configuration not stated) ; system: N-formyl peptide receptor 2 (Homo sapiens)
> 40.3 µM

// fetch Ki for CCCOc1ccc2c(=O)c(N3C(=O)c4ccccc4C3=O)c(C)oc2c1 ; system: N-formyl peptide receptor 2 (Homo sapiens)
> 40.3 µM

// fetch Ki for COc1cccc2c1C(=O)c1c(O)c3c(c(O)c1C2=O)C[C@@](O)(C(C)=O)C[C@@H]3O[C@H]1C[C@H](N)[C@H](O)[C@H](C)O1 ; system: N-formyl peptide receptor 2 (Homo sapiens)
15.2 µM

// fetch Ki for Cc1cccc(Nc2ccccc2C(=O)NCc2ccco2)c1C ; system: N-formyl peptide receptor 2 (Homo sapiens)
> 40.3 µM

// fetch Ki for Cc1cccc(-n2nc3c(c2NC(=O)c2ccco2)CSC3)c1C ; system: N-formyl peptide receptor 2 (Homo sapiens)
> 40.3 µM

// fetch Ki for COCCN1C(=O)C(O)=C(C(=O)c2cccs2)C1c1ccccc1 (configuration not stated) ; system: N-formyl peptide receptor 2 (Homo sapiens)
> 40.3 µM

// fetch Ki for O=C(Cn1c(=O)oc2ccccc21)N1CCN(c2ccccc2)CC1 ; system: N-formyl peptide receptor 2 (Homo sapiens)
> 40.3 µM

// fetch Ki for CC(C)OC(=O)c1nnn(-c2nonc2N)c1CN1CCc2ccccc2C1 ; system: N-formyl peptide receptor 2 (Homo sapiens)
> 40.3 µM

// fetch Ki for C/C(=C1/SC(N2CCCC2)=NC1=O)c1ccc(Br)cc1 ; system: N-formyl peptide receptor 2 (Homo sapiens)
> 40.3 µM

// fetch Ki for O=C(O)CCCNc1cc(N2CCC3(CC2)OCCO3)c2noc3c2c1C(=O)c1ccccc1-3 ; system: N-formyl peptide receptor 2 (Homo sapiens)
6.6 µM

// fetch Ki for O=C(NCc1cccnc1)C1c2ccccc2C(=O)N1C1CCCCCCC1 (configuration not stated) ; system: N-formyl peptide receptor 2 (Homo sapiens)
> 40.3 µM

// fetch Ki for COc1ccc(OC)c(NC(=O)C2C3CCC(C3=C(C)C)C2C(=O)O)c1 (configuration not stated) ; system: N-formyl peptide receptor 2 (Homo sapiens)
> 40.3 µM

// fetch Ki for O=C1C(CCS(=O)c2ccccc2)C(=O)N(c2ccccc2)N1c1ccccc1 (configuration not stated) ; system: N-formyl peptide receptor 2 (Homo sapiens)
> 40.3 µM
